# ASSAY TARGET: Alpha-1A adrenergic receptor (Oryctolagus cuniculus)
# PROTOCOL NOTES: Antagonistic activity against alpha 1A/1L receptor was assessed in a rabbit bladder neck functional assay
# REPORTED CONDITIONS: read-out: pA2 (converted)
Exercise: state measured Kb for each of the compounds provided.
Write it as a number; the unit nM goes unstated.

Would you mind telling me what Kb value was observed for "COc1ccccc1N1CCN(CCCNc2ncccc2C(=O)N(C)C)CC1" ?
1.58

Would you mind telling me what Kb value was observed for "CN(C)C(=O)c1cccnc1NCCCN1CCN(c2ccccc2O)CC1" ?
5.01

Would you mind telling me what Kb value was observed for "CC(C)c1ccccc1N1CCN(CCCNc2ncccc2C(=O)N(C)C)CC1" ?
0.398

Would you mind telling me what Kb value was observed for "COc1ccccc1N1CCN(CCCNc2ncc(O)cc2C(=O)N(C)C)CC1" ?
2

Would you mind telling me what Kb value was observed for "CN(C)C(=O)c1cccnc1NCCCN1CCN(c2ccccc2OC(F)(F)F)CC1" ?
3.16

Would you mind telling me what Kb value was observed for "COc1cc(F)ccc1N1CCN(CCCNc2c(C(=O)N(C)C)c[nH]c3ccn[n+]2-3)CC1" ?
0.631

Would you mind telling me what Kb value was observed for "COc1cc(O)ccc1N1CCN(CCCNc2ncccc2C(=O)N(C)C)CC1" ?
12.6

Would you mind telling me what Kb value was observed for "CSc1ccccc1N1CCN(CCCNc2ncccc2C(=O)N(C)C)CC1" ?
0.631

Would you mind telling me what Kb value was observed for COc1cc2nc(N3CCN(C(=O)C4CCCO4)CC3)nc(N)c2cc1OC (racemic) ?
20

Would you mind telling me what Kb value was observed for "COc1cc(F)ccc1N1CCN(CCCNc2c(C(=O)N(C)C)cnc3c(C#N)cccc23)CC1" ?
1.26

Would you mind telling me what Kb value was observed for "COc1ccccc1N1CCN(CCCNc2ncc(C#N)cc2C(=O)N(C)C)CC1" ?
0.794

Would you mind telling me what Kb value was observed for "Cc1ccc(N2CCN(CCCNc3ncccc3C(=O)N(C)C)CC2)c(-n2cccc2)c1" ?
0.02

Would you mind telling me what Kb value was observed for "CNC(=O)c1cccnc1NCCCN1CCN(c2ccccc2OC)CC1" ?
1

Would you mind telling me what Kb value was observed for "COc1ccccc1N1CCN(CCCNc2ccc(C(=O)N(C)C)cn2)CC1" ?
25.1

Would you mind telling me what Kb value was observed for "CN(C)C(=O)c1cccnc1NCCCN1CCN(c2ccccc2)CC1" ?
6.31

Would you mind telling me what Kb value was observed for "Cc1nn(C)c2ncc(C(=O)N(C)C)c(NCCCN3CCN(c4ccc(F)cc4-c4ncco4)CC3)c12" ?
0.126

Would you mind telling me what Kb value was observed for "CC(C)(Cc1c[nH]c2ccc(Cl)cc12)NCCOc1ccccc1OCC1CC1" ?
50.1

* * *

Exercise: state measured Kb for each of the compounds provided.
# ASSAY TARGET: Alpha-1A adrenergic receptor (Oryctolagus cuniculus, UniProt O02824)
# Sequence (O02824 whole entry): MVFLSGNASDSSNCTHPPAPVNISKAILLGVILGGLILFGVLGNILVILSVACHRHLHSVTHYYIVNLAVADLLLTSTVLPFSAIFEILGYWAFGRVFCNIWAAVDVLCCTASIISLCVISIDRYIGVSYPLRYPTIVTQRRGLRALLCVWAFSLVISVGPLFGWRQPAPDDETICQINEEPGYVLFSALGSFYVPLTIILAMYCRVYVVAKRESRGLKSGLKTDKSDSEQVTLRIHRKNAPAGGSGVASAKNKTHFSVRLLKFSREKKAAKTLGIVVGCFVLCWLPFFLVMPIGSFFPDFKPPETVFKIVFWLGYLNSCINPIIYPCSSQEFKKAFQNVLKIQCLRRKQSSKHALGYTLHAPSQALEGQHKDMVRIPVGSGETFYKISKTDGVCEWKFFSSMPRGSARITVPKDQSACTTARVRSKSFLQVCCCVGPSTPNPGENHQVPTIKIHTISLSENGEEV
# PROTOCOL NOTES: Antagonistic activity against alpha 1A/1L receptor was assessed in a rabbit bladder neck functional assay
# REPORTED CONDITIONS: read-out: pA2 (converted)
Write it as a number; the unit nM goes unstated.

Would you mind telling me what Kb value was observed for "COc1ccccc1N1CCN(CCCNc2c(C)c(=O)n(C)c(=O)n2C)CC1" ?
3.98

Would you mind telling me what Kb value was observed for "COc1ccccc1N1CCN(CCCNc2ccccc2C(=O)c2ccccc2)CC1" ?
31.6

Would you mind telling me what Kb value was observed for "COc1ccccc1N1CCN(CCCNc2ncccc2C(=O)NC(C)(C)C)CC1" ?
1.26
